Origin of measurements: patent US20240270821A1

# Target: hGLP-1R (Homo sapiens, UniProt P43220)
# Sequence (P43220 24-463): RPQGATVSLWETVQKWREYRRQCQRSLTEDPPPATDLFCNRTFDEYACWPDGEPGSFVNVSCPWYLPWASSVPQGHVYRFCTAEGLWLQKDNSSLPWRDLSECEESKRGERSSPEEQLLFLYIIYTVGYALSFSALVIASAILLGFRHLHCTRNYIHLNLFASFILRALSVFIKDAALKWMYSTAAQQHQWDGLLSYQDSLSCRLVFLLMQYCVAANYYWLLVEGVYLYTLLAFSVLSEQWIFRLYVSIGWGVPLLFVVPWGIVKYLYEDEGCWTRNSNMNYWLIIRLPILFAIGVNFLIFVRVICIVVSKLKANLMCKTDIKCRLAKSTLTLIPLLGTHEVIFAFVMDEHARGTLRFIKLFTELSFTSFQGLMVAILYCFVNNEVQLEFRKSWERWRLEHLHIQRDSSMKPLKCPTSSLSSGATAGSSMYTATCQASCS
# Assay Explanation: cell-based or functional assay
Starred links: 1 amine or outer side, 2 acyl side, 3 side chain; linkers in the order of their positions; H or OH if unused. Non-standard residues stand in square brackets, D forms with d. Groups on a side chain read outwards from the residue. No end group written: not given here. *: point of attachment. C20 diacid = O=C(O)CCCCCCCCCCCCCCCCCCC(=O)*; αMePhe(2-F) = C[C@](N)(Cc1ccccc1F)C(=O)O; γGlu = O=C(O)[C@H](CCC(=O)[*:2])N[*:1]; αMeL = CC(C)C[C@](C)(N)C(=O)O; AEEA = NCCOCCOCC(=O)O; Aib = CC(C)(N)C(=O)O
List of Relative cAMP EC50 values.
Metric Name: Relative cAMP EC50 (nM)

Binder	Value Reported
YXQGTFTSDXXQXLDXKAQXQFIEXLIAXGPSSGAPPPSGGGE (not fully specified; non-natural residues; Lys acylated with γGlu-C18 diacid; C-terminal amide; synthetic construct; SITE 2: note = 2-Aminoisobutyric Acid; SITE 10: note = 3-(4-Pyridyl)-L-alanine; SITE 11: note = alpha-methyl-L-serine; SITE 13: note = alpha-methyl-leucine; SITE 16: note = L-ornithine; SITE 17: note = Lysine is chemically modified through conjugation of the epsilon-amino group) [Example 1185]	0.762
YXQGTXTSDYSSLLDKKAQXAFIEYLEEGGPSSGAPPPS (synthetic construct; SITE 2: note = 2-Aminoisobutyric Acid; SITE 6: note = alpha-methyl-2-fluoro-L-phenylalanine; SITE 17: note = Lysine is chemically modified through conjugation of the epsilon-amino group of the Lysine side chain with (2-[2-(2-Amino-ethoxy)-ethoxy]-acetyl)-(gamma-Glu)-CO-(CH2) 16-) [Example 409]	0.484
YXQGTFTSDXSQXLDXKAQXAFIEXLIEGGPSSGEPPPSGSEE (non-natural residues; lysine acylated with C18 diacid; C-terminal amide; synthetic construct; SITE 2: note = 2-Aminoisobutyric Acid; SITE 10: note = 3-(4-Pyridyl)-L-alanine; SITE 13: note = alpha-methyl-leucine; SITE 16: note = L-ornithine; SITE 17: note = Lysine is chemically modified through conjugation of the epsilon-amino group of the Lysine side chain with (gamma-Gl)) [Example 1028]	1.34
YXQGTXTSDYSILLDKKAQXXFIEYLEEGGPSSGAPPPS (synthetic construct; SITE 2: note = 2-Aminoisobutyric Acid; SITE 6: note = alpha-methyl-2-fluoro-L-phenylalanine; SITE 17: note = Lysine is chemically modified through conjugation of the epsilon-amino group of the Lysine side chain with (gamma-Glu)2-CO-(CH2)16-CO2H; SITE 20: note = 2-Aminoisobutyric) [Example 415]	0.38
YXQGTFTSDXSQXLDKKAQXAFIEYLIEXGPSSGAPPPSGSGE (not fully specified; possible C-terminal amide; synthetic construct; SITE 2: note = 2-Aminoisobutyric Acid; SITE 10: note = 3-(4-Pyridyl)-L-alanine; SITE 13: note = alpha-methyl-leucine; SITE 17: note = Lysine is chemically modified through conjugation of the epsilon-amino group of the Lysine side chain with (gamma-Glu)2-CO-(CH2)16-CO2H; SITE 20:) [Example 891]	3.25
YXQGTFTSDXSQXLDKKAQXAFIEYLIAGGPSSGAPPPSGEEE (Aib, 4Pal, αMeL, Me4Pal, acylated K, C-terminal amide; synthetic construct; SITE 2: note = 2-Aminoisobutyric Acid; SITE 10: note = 3-(4-Pyridyl)-L-alanine; SITE 13: note = alpha-methyl-leucine; SITE 17: note = Lysine is chemically modified through conjugation of the epsilon-amino group of the Lysine side chain with D-Glutamic acid-(gamma-Glu)-CO-(CH2)16) [Example 1088]	2.99
YXQGTXTSDXSIXLDXKAAXAFIEXLLEGGPSSGEPPPS (synthetic construct; SITE 2: note = 2-Aminoisobutyric Acid; SITE 6: note = alpha-methyl-2-fluoro-L-phenylalanine; SITE 10: note = 3-(4-Pyridyl)-L-alanine; SITE 13: note = alpha-methyl-leucine; SITE 16: note = L-ornithine; SITE 17: note = Lysine is chemically modified through conjugation of the epsil) [Example 1236]	0.304
YXQGTXTSDXSIXLDXKAQXEFIEXLIEGGPSSGAPPPSGE (non-natural residues; acylated Lys; C-terminal amide; synthetic construct; SITE 2: note = 2-Aminoisobutyric Acid; SITE 6: note = alpha-methyl-2-fluoro-L-phenylalanine; SITE 10: note = 3-(4-Pyridyl)-L-alanine; SITE 13: note = alpha-methyl-leucine; SITE 16: note = L-ornithine; SITE 17: note = Lysine is chemically modified through conjugation of the epsil) [Example 616]	0.29
YXQGTXTSDYSILLDXKAQXAFIEYLLEGGPSSGAPPPS (synthetic construct; SITE 2: note = 2-Aminoisobutyric Acid; SITE 6: note = alpha-methyl-2-fluoro-L-phenylalanine; SITE 16: note = L-ornithine; SITE 17: note = Lysine is chemically modified through conjugation of the epsilon-amino group of the Lysine side chain with (2-[2-(2-Amino-ethoxy)-ethoxy]-ace)) [Example 427]	0.282
YXQGTXTSDYSILLDKKAQXAFIEFLEEGGPSSGAPPPSEG (not fully specified; synthetic construct; SITE 2: note = 2-Aminoisobutyric Acid; SITE 6: note = alpha-methyl-2-fluoro-L-phenylalanine; SITE 17: note = Lysine is chemically modified through conjugation of the epsilon-amino group of the Lysine side chain with (2-[2-(2-Amino-ethoxy)-ethoxy]-acetyl)-(gamma-Glu)-CO-(CH2) 16-) [Example 412]	0.282
YXQGTFTSDFSKXLDKKAQXAFIEYLLEXGPSSGAPPPGEG (synthetic construct; SITE 2: note = 2-Aminoisobutyric Acid; SITE 13: note = alpha-methyl-leucine; SITE 17: note = Lysine is chemically modified through conjugation of the epsilon-amino group of the Lysine side chain with (2-[2-(2-Amino-ethoxy)-ethoxy]-acetyl)2-(gamma-Glu)-CO-(CH2 )18-CO2H; SITE 20:) [Example 55]	1.96
YXQGTFTSDXSQXLDXKAQXAFIEYLIAGGPSSGEPPPSGSGE (synthetic construct; SITE 2: note = 2-Aminoisobutyric Acid; SITE 10: note = 3-(4-Pyridyl)-L-alanine; SITE 13: note = alpha-methyl-leucine; SITE 16: note = L-ornithine; SITE 17: note = Lysine is chemically modified through conjugation of the epsilon-amino group of the Lysine side chain with (gamma-Gl)) [Example 978]	1.6
YXQGTFTSDXSQXLDKKAQXAFIEYLLEAGPSSGAPPPSGX (synthetic construct; SITE 2: note = 2-Aminoisobutyric Acid; SITE 10: note = 3-(4-Pyridyl)-L-alanine; SITE 13: note = alpha-methyl-leucine; SITE 17: note = Lysine is chemically modified through conjugation of the epsilon-amino group of the Lysine side chain with (2-[2-(2-Amino-ethoxy)-ethoxy]-acetyl)) [Example 822]	2.51
Y[Aib]QGT[αMePhe(2-F)]TSDYSILLDKIAQK([AEEA-γGlu-C20 diacid])AFIEYLLEGGPSSGEPPPSEG-NH2 [Example 293]	0.994
Y[Aib]QGTFTSDYSI[αMeL]LDKQAAK([AEEA-AEEA-γGlu-C20 diacid])QFVEWLIA[Aib]GPSSGEPPPAEG-NH2 [Example 334]	0.707
YXQGTFTSDXSQXLDXKAQXAFIQXLIEGGPSSGAPPPSGSEEE (non-natural residues, acylated Lys (γGlu-C18 diacid), C-terminal amide; synthetic construct; SITE 2: note = 2-Aminoisobutyric Acid; SITE 10: note = 3-(4-Pyridyl)-L-alanine; SITE 13: note = alpha-methyl-leucine; SITE 16: note = L-ornithine; SITE 17: note = Lysine is chemically modified through conjugation of the epsilon-amino group of the Lysine side chain with D-Glutami) [Example 1073]	1.09
YXQGTFTSDXSXXLDXKAQXAFIEXLLEGGPSSGAPPPSGSEE (non-natural residues; lysine acylated with C18 diacid; C-terminal amide; synthetic construct; SITE 2: note = 2-Aminoisobutyric Acid; SITE 10: note = 3-(4-Pyridyl)-L-alanine; SITE 12: note = L-ornithine; SITE 13: note = alpha-methyl-leucine; SITE 16: note = L-ornithine; SITE 17: note = Lysine is chemically modified through conjugation of the epsilon-amino group of the Lys) [Example 1067]	17.6
YXQGTFTSDFSXXLDKKAQXAFIEYLLEGGPSSGAPPPGGX (synthetic construct; SITE 2: note = 2-Aminoisobutyric Acid; SITE 12: note = L-ornithine; SITE 13: note = alpha-methyl-leucine; SITE 17: note = Lysine is chemically modified through conjugation of the epsilon-amino group of the Lysine side chain with (2-[2-(2-Amino-ethoxy)-ethoxy]-acetyl)-(gamma-Glu)) [Example 261]	3.12
YXQGTXTSDYXSLLDXKAQXXFIEXLLEGGPSSGEPPPE (synthetic construct; SITE 2: note = 2-Aminoisobutyric Acid; SITE 6: note = alpha-methyl-L-phenylalanine; SITE 11: note = alpha-methyl-L-serine; SITE 16: note = L-ornithine; SITE 17: note = Lysine is chemically modified through conjugation of the epsilon-amino group of the Lysine side chain with (2-[) [Example 390]	0.134
YXQGTFTSDXSKXLDKKAQXAFIEYLIEXGPSSGAPPPSGSEE (synthetic construct; SITE 2: note = 2-Aminoisobutyric Acid; SITE 10: note = 3-(4-Pyridyl)-L-alanine; SITE 13: note = alpha-methyl-leucine; SITE 17: note = Lysine is chemically modified through conjugation of the epsilon-amino group of the Lysine side chain with (gamma-Glu)2-CO-(CH2)16-CO2H; SITE 20:) [Example 905]	2.52
YXQGTFTSDFSXXLDKKAQXAFIEYLLEGGPSSGAPPPGGE (synthetic construct; SITE 2: note = 2-Aminoisobutyric Acid; SITE 12: note = L-ornithine; SITE 13: note = alpha-methyl-leucine; SITE 17: note = Lysine is chemically modified through conjugation of the epsilon-amino group of the Lysine side chain with (2-[2-(2-Amino-ethoxy)-ethoxy]-acetyl)-(gamma-Glu)) [Example 63]	4.78
YXQGTFTSDFSQXLDKKAQXAFIEYLIEXGESSGAPPPSGE (non-natural residues; AEEA-γGlu-C18 diacid on Lys; C-terminal amide; synthetic construct; SITE 2: note = 2-Aminoisobutyric Acid; SITE 13: note = alpha-methyl-leucine; SITE 17: note = Lysine is chemically modified through conjugation of the epsilon-amino group of the Lysine side chain with (2-[2-(2-Amino-ethoxy)-ethoxy]-acetyl)-(gamma-Glu)-CO-(CH2) 16-CO2H; SITE 20: n) [Example 233]	0.874
YXQGTFTSDXSXXLDXKAQXAFIEYLIAGGPSSGAPPPSGSEE (non-natural residues, C-terminal amide, acylated Lys with fatty diacid; synthetic construct; SITE 2: note = 2-Aminoisobutyric Acid; SITE 10: note = 3-(4-Pyridyl)-L-alanine; SITE 12: note = …; SITE 13: note = alpha-methyl-leucine; SITE 16: note = L-ornithine; SITE 17: note = Lysine is chemically modified through conjugation of the epsilon-amino group of the Lys) [Example 1061]	4.56
YXQGTXTSDYSILLDKKAQXAFIEYLEEGGPSSGAPPPSEG (not fully specified; synthetic construct; SITE 2: note = 2-Aminoisobutyric Acid; SITE 6: note = alpha-methyl-2-fluoro-L-phenylalanine; SITE 17: note = Lysine is chemically modified through conjugation of the epsilon-amino group of the Lysine side chain with (2-[2-(2-Amino-ethoxy)-ethoxy]-acetyl)-(gamma-Glu)-CO-(CH2) 16-) [Example 398]	0.186
